Tested on: M14 melanoma
Assay Comment: NCI tumour cell line growth inhibition, 48 h
Quantity Kind: GI50

[[record]]
compound = "N#Cc1nc(-c2ccccc2)oc1S(=O)(=O)N1CCOCC1"
quantity_kind = "GI50"
data_value = "2260 nM"


Task: For the compound CC[C@H](C)[C@H](NC(=O)C12C3C4C1C1C2C3C41NC(C)=O)C(=O)N(C)[C@H](C[C@@H](OC(C)=O)c1nc(C(=O)N[C@@H](Cc2ccccc2)C[C@H](C)C(=O)OC)cs1)C(C)C (some centres undefined) , what GI50 is on record?
Output: 259 nM

Task: For the compound COc1ccc(/C=C(\C#N)c2cc3ccccc3n2C)cc1 , what GI50 is on record?
Output: 308 nM

Task: For the compound O=c1[nH]c(-c2ccc(C(F)(F)F)cc2)nc2c1CSCC2 , what GI50 is on record?
Output: 68700 nM

Task: For the compound O=C(NNS(=O)(=O)c1cc(C(F)(F)F)cc(C(F)(F)F)c1)c1cnn(-c2ccc(Cl)cc2)c1C(F)(F)F , what GI50 is on record?
Output: 16300 nM

Task: For the compound O=C1/C(=C/c2cccs2)CCC/C1=C\c1cccs1 , what GI50 is on record?
Output: > 100000 nM

Task: For the compound Cn1c(=O)c2[nH]c(COc3ccc(C(C)(C)C)cc3)nc2n(C)c1=O , what GI50 is on record?
Output: 15000 nM

Task: For the compound COc1cc(C2C(C#N)=C(N)OC3=C2C(=O)c2ccccc2C3=O)cc(OC)c1OC (centres undefined) , what GI50 is on record?
Output: 395 nM

Task: For the compound CC(C)(C)CC(C)(C)c1ccc(OCCOCCSC(=N)N)cc1 , what GI50 is on record?
Output: 1800 nM

Task: For the compound Cn1ccnc1C(=O)/C=C/c1ccc(C(=O)Nc2nc3ccccc3[nH]2)cc1 , what GI50 is on record?
Output: 10300 nM

Task: For the compound CN(C)c1ccc(/C=C/c2ccnc3ccccc23)cc1 , what GI50 is on record?
Output: 2550 nM

Task: For the compound C=C(C)C1/C=C(/C(C)C)CC[C@]2(C)O[C@@H]2CC[C@H](C)CC1=O (some centres undefined) , what GI50 is on record?
Output: 49600 nM

Task: For the compound O=C(/C=C\c1ccnc2ccccc12)c1ccc([N+](=O)[O-])cc1 , what GI50 is on record?
Output: 4940 nM

Task: For the compound O=Nc1c(O)ccc2ccccc12 , what GI50 is on record?
Output: 1920 nM

Task: For the compound CC#CC(=O)N1CCC[C@H]1c1nc(-c2ccc(C(=O)Nc3ccccn3)cc2)c2c(N)nccn12 , what GI50 is on record?
Output: 56500 nM

Task: For the compound CC(=O)/C(C)=N/N/C(N)=N\S(=O)(=O)c1cc(C(=O)Nc2ccccc2)c(Cl)cc1SCc1ccccc1 , what GI50 is on record?
Output: 1080 nM

Task: For the compound COc1ccc(/C=C2\N=C3SC=C(N)N3C2=O)cc1 , what GI50 is on record?
Output: 1210 nM

Task: For the compound CCNCCNc1cc(-c2ccc(F)cc2)c(C#N)c2nc3ccccc3n12 , what GI50 is on record?
Output: 1970 nM

Task: For the compound FC(F)(F)c1ccc(-c2cnc(Br)nc2NC2CCCCCC2)cc1 , what GI50 is on record?
Output: > 100000 nM

Origin of the recorded values: PubChem BioAssay (NCI)
